We begin with a simple list: items and their reported fold change (FC).
Tested on: RAW264.7
Test: Modulation of M2 polarization in mouse RAW264.7 cells assessed as change in Arg1 mRNA expression at 300 nM measured after 24 hrs by qRT-PCR analysis relative to control
Assay type: functional
Lab note: write the figure by itself, no unit.

O=C1NCCN(C(=O)c2ccc(-c3cc[nH]n3)cc2)C1Cc1ccccc1 (centres undefined)	1.33
Cl.Cn1nccc1-c1ccc(C(=O)N[C@@H]2CNCC[C@H]2c2cccc(F)c2)c(F)c1	10.05
Cc1cc(-c2c(Br)cnn2C)cnc1C(=O)N[C@@H]1CNCC[C@H]1c1cccc(F)c1.Cl	0.71
Cc1cc(C(=O)N[C@@H]2CNCC[C@H]2c2cccc(F)c2)ccc1-c1c(Br)cnn1C.Cl	6.54
Cl.Cn1nccc1-c1ccc(C(=O)N[C@H]2CNCC[C@@H]2c2cccc(F)c2)c(F)c1	0.31

Here's the next entry for you.
(Q) Complete the entry with fold change (FC) for Cl.O=C(N[C@@H]1CNCC[C@H]1c1cccc(F)c1)c1ccc(F)cc1
(A) 0.91
